Biological target: His6-PDK1(Δ1-50) (Homo sapiens)
Construct: His6 (N)
Sequence (O15530 51-556): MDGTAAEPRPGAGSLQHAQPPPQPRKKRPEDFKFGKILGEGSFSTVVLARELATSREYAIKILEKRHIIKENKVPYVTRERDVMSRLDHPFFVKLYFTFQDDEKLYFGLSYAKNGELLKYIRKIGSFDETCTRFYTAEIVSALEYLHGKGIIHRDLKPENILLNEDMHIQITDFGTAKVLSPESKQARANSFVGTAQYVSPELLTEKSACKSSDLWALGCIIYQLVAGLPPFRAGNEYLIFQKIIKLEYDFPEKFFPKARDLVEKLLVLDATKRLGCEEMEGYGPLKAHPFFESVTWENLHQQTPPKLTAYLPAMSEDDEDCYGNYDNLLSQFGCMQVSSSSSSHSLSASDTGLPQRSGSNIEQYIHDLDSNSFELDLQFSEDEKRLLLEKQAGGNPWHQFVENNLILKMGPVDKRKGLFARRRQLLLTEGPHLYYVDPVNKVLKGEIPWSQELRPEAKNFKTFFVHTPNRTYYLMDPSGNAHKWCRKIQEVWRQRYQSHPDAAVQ
Test: Inhibition of PDK1 (IC50), 384-well flashplate kinase assay
Assay type: biochemical
Settings: 4 μM ATP, 400 nM PDKtide, second part of Table 1 (compounds 32-124)
Field: IC50. Provide a value for each of the compounds that follow.
Please reply with the bare figure in nM and do not write the unit itself.

Kindly note the recorded IC50 for CN1CCC(N(C)c2ncc3c(n2)Nc2cc(Cl)c(Cl)cc2NC3=O)CC1 [Compound 35] , which is 3700

Kindly note the recorded IC50 for CCN1CCC(Nc2ncc3c(n2)Nc2c(ccc(C)c2C)NC3=O)CC1 [Compound 41] , which is 6300

Kindly note the recorded IC50 for CN1CCC(N(C)c2ncc3c(n2)Nc2ccc(NC(=O)NC4CCCCC4)cc2NC3=O)CC1 [Compound 88] , which is 150

Kindly note the recorded IC50 for CN1CCC(N(C)c2ncc3c(n2)Nc2c(NC(=O)NC(C)(C)C)cccc2NC3=O)CC1 [Compound 84] , which is 5500

Kindly note the recorded IC50 for CN1CCC(Nc2ncc3c(n2)Nc2ccc(C(F)(F)F)cc2NC3=O)CC1 [Compound 62] , which is 1800

Kindly note the recorded IC50 for Cc1cc2c(cc1C)Nc1nc(N(C)C3CCN(C(=O)CCN(C)C)CC3)ncc1C(=O)N2 [Compound 72] , which is 8100

Kindly note the recorded IC50 for CN1CCC(N(C)c2ncc3c(n2)Nc2ccc(NC(=O)NC(C)(C)C)cc2NC3=O)CC1 [Compound 83] , which is 200

Kindly note the recorded IC50 for CCN1CCC(Nc2ncc3c(n2)Nc2c(C)cccc2NC3=O)CC1 [Compound 54] , which is 7100

Kindly note the recorded IC50 for CC(C)NC(=O)Nc1ccc2c(c1)Nc1nc(N(C)C3CCN(C)CC3)ncc1C(=O)N2 [Compound 75] , which is 960

Kindly note the recorded IC50 for CC(C)N1CCC(Nc2ncc3c(n2)Nc2ccc(F)cc2NC3=O)CC1 [Compound 52] , which is 3600

Kindly note the recorded IC50 for CN1CCC(N(C)c2ncc3c(n2)Nc2ccc(N)cc2NC3=O)CC1 [Compound 80] , which is 190

Kindly note the recorded IC50 for Cc1cc2c(cc1C)Nc1nc(N(C)C3CCN(C)CC3)ncc1C(=O)N2 [Compound 32] , which is 640

Kindly note the recorded IC50 for CN1CCC(N(C)c2ncc3c(n2)Nc2ccc(C#N)cc2NC3=O)CC1 [Compound 38] , which is 600

Kindly note the recorded IC50 for CCN1CCC(Nc2ncc3c(n2)Nc2cc(C)c(C)cc2NC3=O)CC1 [Compound 47] , which is 1500

Kindly note the recorded IC50 for CCC(C)NC(=O)Nc1cccc2c1Nc1nc(N(C)C3CCN(C)CC3)ncc1C(=O)N2 (stereo not drawn) [Compound 92] , which is 7800

Kindly note the recorded IC50 for Cc1cc(C)c2c(c1)NC(=O)c1cnc(NC3CCN(C)CC3)nc1N2 [Compound 34] , which is 3700

Kindly note the recorded IC50 for CCNC(=O)Nc1ccc2c(c1)NC(=O)c1cnc(N(C)C3CCN(C)CC3)nc1N2 [Compound 85] , which is 280

Kindly note the recorded IC50 for CCN1CCC(Nc2ncc3c(n2)Nc2cc(Cl)c(Cl)cc2NC3=O)CC1 [Compound 39] , which is 4900
